Ref: patent US12501900B2

Tested on: Septoria tritici
Experiment: Septoria tritici in vitro cell test
Type: cell-based
Conditions: Zymoseptoria tritici, 168 h; 20 ppm of active ingredient; liquid culture, 7 days incubation; read-out: efficacy (inhibition of fungal growth)
Measurement Label: inhibition at 20 ppm

Previously resolved entries follow.
COc1cccc(Oc2nnc(Cl)cc2C2=NOCC(Cc3ccc(C)cc3C)N2)c1F (racemic) [I-005]; 70 to 79%
FC(F)(F)c1cccc(Oc2nnc(Cl)cc2C2=NOCC(Cc3ccc(Br)cc3Cl)N2)c1 (racemic) [I-016]; 90 to 100%
C=C(OCC)c1cc(C2=NOCC(Cc3ccc(C)cc3C)N2)c(Oc2cccc(C(F)(F)F)c2)nn1 (racemic) [I-009]; 90 to 100%
FC(F)(F)c1cccc(Oc2nnc(Cl)cc2C2=NCC(Cc3ccc(Cl)cc3Cl)N2)c1 (racemic) [I-007]; 90 to 100%

From here, focus on the item given below.
INPUT: Field request: inhibition at 20 ppm | item: COCCOc1c(Cl)nnc(Oc2cccc(C(F)(F)F)c2)c1C1=NOCC(Cc2ccc(C)cc2C)N1 (racemic) [I-072]
OUTPUT: 80 to 89%

* * *

Test: Measurement of LogP values by HPLC on reversed phase columns (EEC directive 79/831 Annex V.A8), methods [a], [b], [c]
Type: physicochemical
Settings: method [a]; Table 9, compounds of formula (4)
I'd appreciate it if you could supply chromatographic logP values for the items below.
Numbers only.

Cc1ccc(CC(CON)NC(=O)c2cc(Cl)nnc2Oc2cccc(C(F)(F)F)c2)c(C)c1 (racemic); 3.37

INPUT: Field request: chromatographic logP | item: Cc1ccc(OCC(CON)NC(=O)c2cc(C)nnc2Oc2cccc(C(F)(F)F)c2)c(C)c1 (racemic)
OUTPUT: 3.13

* * *

Assay: Measurement of LogP values by HPLC on reversed phase columns (EEC directive 79/831 Annex V.A8), methods [a], [b], [c]
Type: physicochemical
Conditions: HPLC on reversed phase column, method [a]; read-out: Log P
Answer not fulfilled if chromatographic logP is under 4, and fulfilled if it is 4 or more.

Look over these answered cases.
FC(F)(F)c1cccc(Oc2nnc(Cl)cc2C2=NOC[C@H](Cc3ccccc3)N2)c1 (single isomer, unassigned); not fulfilled
Cc1cc(C2=NOCC(c3cn(C)c4ccccc34)N2)c(Oc2cccc(C(F)(F)F)c2)nn1 (racemic); not fulfilled
Cc1ccc(CC2CON=C(c3c(Oc4cccc(C(F)(F)F)c4)nnc(Cl)c3I)N2)c(C)c1 (racemic); fulfilled

Now examine the next entry.
INPUT: Reported chromatographic logP at or above 4? FC(F)(F)c1cccc(Oc2nnc(Cl)cc2C2=NCC(Cc3ccc(Cl)cc3Cl)N2)c1 (racemic)
OUTPUT: not fulfilled

* * *

Experiment: Measurement of LogP values by HPLC on reversed phase columns (EEC directive 79/831 Annex V.A8), methods [a], [b], [c]
Type: physicochemical
Details: method [a]: LC-UV, acidic range, 0.1% formic acid in water and acetonitrile; Table 13, compounds of formula (7)
Measurement Label: chromatographic logP

INPUT: Field request: chromatographic logP | item: Cc1ccc(CC2CON=C(c3cc(Cl)nnc3Cl)N2)c(C)c1 (racemic) [7-01]
OUTPUT: 2.98

* * *

Assay: Measurement of LogP values by HPLC on reversed phase columns (EEC directive 79/831 Annex V.A8), methods [a], [b], [c]
Format: physicochemical
Settings: method [a]; Table 19, compounds of formula (12); two values joined by & in some cells
I'd appreciate it if you could supply chromatographic logP values for the items below.
Answers are plain numbers.

COc1ccc(C(=O)C(F)(F)ON=C(N)c2cc(C)nnc2Oc2cccc(C(F)(F)F)c2)cc1 [12-14]; 3.13

From here, focus on the item given below.
INPUT: Field request: chromatographic logP | item: Cc1cc(C(N)=NOCC(=O)c2ccc(Cl)cc2)c(Oc2cccc(C(F)(F)F)c2)nn1 [12-03]
OUTPUT: 3.42

* * *

Assay: Measurement of LogP values by HPLC on reversed phase columns (EEC directive 79/831 Annex V.A8), methods [a], [b], [c]
Assay type: physicochemical
Settings: method [a]; Table 33, compounds of formula (21)
Measurement Label: chromatographic logP
One number for each entry.

INPUT: Field request: chromatographic logP | item: Cc1ccc(CC(CCl)NC(=O)c2cc(Cl)nnc2Oc2cccc(C(F)(F)F)c2)c(C)c1 (stereo not shown)
OUTPUT: 5

* * *

Test: Measurement of LogP values by HPLC on reversed phase columns (EEC directive 79/831 Annex V.A8), methods [a], [b], [c]
Type: physicochemical
Conditions: method [a]: LC-UV, acidic range, 0.1% formic acid in water and acetonitrile; Table 21, compounds of formula (13)
Measurement Label: chromatographic logP
Answers are plain numbers.

INPUT: Field request: chromatographic logP | item: `C=CCON=C(N)c1cc(C)nnc1Oc1cccc(C(F)(F)F)c1`
OUTPUT: 2.88

* * *

I'd appreciate it if you could supply chromatographic logP values for the items below.
Test: LogP determination
Format: physicochemical
Conditions: reversed phase HPLC column; method [a]
Numbers only.

Previously resolved entries follow.
COC(=N)c1cc(Cl)nnc1Oc1cccc(C(F)(F)F)c1; 3
Cc1cc(C(N)=NOCC=Cc2ccc3c(ccn3C)c2)c(Oc2cccc(C(F)(F)F)c2)nn1; 3.92

From here, focus on the item given below.
INPUT: Field request: chromatographic logP | item: `COC(=N)c1cc(Cl)nnc1Oc1cccc(C2CC2)c1`
OUTPUT: 3.08

* * *

Experiment: Measurement of LogP values by HPLC on reversed phase columns (EEC directive 79/831 Annex V.A8), methods [a], [b], [c]
Type: physicochemical
Conditions: method [a]: LC-UV, acidic range, 0.1% formic acid in water and acetonitrile; Table 17, compounds of formula (10)
Measurement Label: LogP

Previously resolved entries follow.
NC(=NO)c1cc(Cl)nnc1Oc1cccc(Br)c1F [10-05]; 2.21^[a]
NC(=NO)c1cc(Cl)nnc1Oc1cccc(C2CC2)c1 [10-08]; 2.19^[a]
NC(=NO)c1cc(Cl)nnc1Oc1cccc(Cl)c1 [10-04]; 2.00^[a]

Batch request: LogP per item, same order as input.
1. NC(=NO)c1cc(Cl)nnc1Oc1cccc(C(F)F)c1F [10-09]
2. NC(=NO)c1cc(Cl)nnc1Oc1cccc(C2CC2)c1F [10-07]

OUTPUT:
["1.91^[a]", "2.34^[a]"]

* * *

Experiment: Measurement of LogP values by HPLC on reversed phase columns (EEC directive 79/831 Annex V.A8), methods [a], [b], [c]
Assay type: physicochemical
Details: method [a]: LC-UV, acidic range, 0.1% formic acid in water and acetonitrile; Table 23, compounds of formula (14)
Measurement Label: chromatographic logP
Answers are plain numbers.

INPUT: Field request: chromatographic logP | item: Cc1cc(C2=NOCC(O)N2)c(Oc2cccc(C(F)(F)F)c2)nn1 (racemic)
OUTPUT: 1.59

* * *

Assay: Measurement of LogP values by HPLC on reversed phase columns (EEC directive 79/831 Annex V.A8), methods [a], [b], [c]
Assay type: physicochemical
Conditions: reversed phase HPLC column; method [a]: LC-UV, acidic range, 0.1% formic acid in water and acetonitrile; Table 3, compounds of formula (1)
Measurement Label: chromatographic logP
Answers are plain numbers.

INPUT: Field request: chromatographic logP | item: `CON(C)C(=O)c1cc(Cl)nnc1Oc1cccc(C(F)(F)F)c1`
OUTPUT: 2.9

* * *

Tested on: Sphaerotheca fuliginea
Test: In vivo preventive test on Sphaerotheca fuliginea (powdery mildew on cucurbits)
Details: Podosphaera fuliginea, 192 h; 500 ppm of active ingredient; preventive spray on gherkin; evaluated 8 days after inoculation; read-out: efficacy
Measurement Label: pest or weed control at 500 ppm

Previously resolved entries follow.
Cc1ccc(CC2CC(=O)N=C(c3cc(Cl)nnc3Oc3cccc(C4CC4)c3)N2)c(C)c1 (racemic); 80 to 89%
FC(F)(F)c1cccc(Oc2nnc(Cl)cc2C2=NOC[C@H](Cc3ccccc3)N2)c1 (single isomer, unassigned); 90 to 100%
Cc1ccc(CC2CON=C(c3cc(C)nnc3Oc3cccc(Cl)c3F)N2)c(Cl)c1 (stereo not shown); 90 to 100%
Cc1cc(C2=NOCC(c3cn(C)c4ccccc34)N2)c(Oc2cccc(C(F)(F)F)c2)nn1 (racemic); 90 to 100%
Cc1cc(C2=NOCC(c3ccc(Cl)cc3)N2)c(Oc2cccc(C(F)(F)F)c2)nn1 (racemic); 80 to 89%
Cc1ccc(OCC2CON=C(c3cc(C)nnc3Oc3cccc(C(F)(F)F)c3)N2)c(C)c1 (racemic); 70 to 79%

From here, focus on the item given below.
INPUT: Field request: pest or weed control at 500 ppm | item: CC(=O)c1cc(C2=NOCC(Cc3ccc(C)cc3C)N2)c(Oc2cccc(C(F)(F)F)c2)nn1 (racemic)
OUTPUT: 90 to 100%

* * *

Experiment: Measurement of LogP values by HPLC on reversed phase columns (EEC directive 79/831 Annex V.A8), methods [a], [b], [c]
Assay type: physicochemical
Conditions: method [a]: LC-UV, acidic range, 0.1% formic acid in water and acetonitrile; Table 7, compounds of formula (3)
I'd appreciate it if you could supply chromatographic logP values for the items below.
Numbers only.

Cc1ccc(CC(CON2C(=O)c3ccccc3C2=O)NC(=O)c2cc(Cl)nnc2Oc2cccc(C(F)(F)F)c2)c(C)c1 (racemic); 5

From here, focus on the item given below.
INPUT: Field request: chromatographic logP | item: Cc1ccc(OCC(CON2C(=O)c3ccccc3C2=O)NC(=O)c2cc(C)nnc2Oc2cccc(C(F)(F)F)c2)c(C)c1 (racemic)
OUTPUT: 4.56
